experiment: chemical genetic growth profiling, strain panel (AID 1159580);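 note: tested at 20 µM; growth read once vehicle control cultures reached saturation at 30 °C; 1 = growth at the plate median or of vehicle wells; lower values mean less growth of the strain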; settings: S. cerevisiae strains, growth OD, strain wild type, active compounds read low
About 2,000 (36%) of roughly 5,500 compounds were called active. Not shown: some 18% with an inconclusive outcome. This is one part of the list.
Measured quantity: normalized growth

Q) Looking for the measured normalized growth of OC[C@@H]1CCCN2CCCC[C@H]12 , can you help?
A) 0.979 (inactive)

Q) Looking for the measured normalized growth of O=C(O)CCCCC1CCSS1 (stereo not drawn) , can you help?
A) 0.978 (inactive)

Q) Looking for the measured normalized growth of CC(C)NCC(O)c1ccc(O)c(O)c1 (stereo not drawn) , can you help?
A) 0.994 (inactive)

Q) Looking for the measured normalized growth of O=C(Nc1ccc(C(F)(F)F)cc1)Nc1ccccc1C(=O)O , can you help?
A) 0.968 (inactive)

Q) Looking for the measured normalized growth of CC1(C)C(O)CC(O)C2(C)C1CC(O)C1(C)C2CCC2(C)C(c3ccoc3)CC3OC321 (stereo not drawn) , can you help?
A) 0.972 (inactive)

Q) Looking for the measured normalized growth of c1ccc2c(c1)cc1ccc3cccc4ccc2c1c34 , can you help?
A) 1.01 (inactive)

Q) Looking for the measured normalized growth of CCCC1O[C@@H]2CC3C4CCC5=CC(=O)C=CC5(C)C4[C@@H](O)CC3(C)[C@]2(C(=O)CO)O1 (stereo partly drawn) , can you help?
A) 0.999 (inactive)

Q) Looking for the measured normalized growth of CC1(C)CC2C1(O)CCC1(C)C=CC(O)C21CO (stereo not drawn) , can you help?
A) 0.993 (inactive)

Q) Looking for the measured normalized growth of NCC(CC(=O)O)c1ccc(Cl)s1 (stereo not drawn) , can you help?
A) 0.979 (inactive)

Q) Looking for the measured normalized growth of Nc1ccc(S(=O)(=O)Nc2ccc(Cl)nn2)cc1 , can you help?
A) 1.01 (inactive)

Q) Looking for the measured normalized growth of Cc1onc(NC(=O)NC(=O)c2c(F)cccc2Cl)c1Br , can you help?
A) 1 (inactive)

Q) Looking for the measured normalized growth of Cc1ccc2cc3c(ccc4ccccc43)c3c2c1CC3 , can you help?
A) 0.97 (inactive)

Q) Looking for the measured normalized growth of Nc1ccccc1SCC(=O)Nc1c(F)cccc1F , can you help?
A) 1.01 (inactive)

Q) Looking for the measured normalized growth of CCCCC1=NC2(CCCC2)C(=O)N1Cc1ccc(-c2ccccc2-c2nn[nH]n2)cc1 , can you help?
A) 0.978 (inactive)

Q) Looking for the measured normalized growth of CC(C)(C)NC[C@@H](O)COc1nsnc1N1CCOCC1 , can you help?
A) 0.994 (inactive)

Q) Looking for the measured normalized growth of C[C@H](N)[C@H](O)c1ccc(O)c(O)c1 , can you help?
A) 1.01 (inactive)

Q) Looking for the measured normalized growth of COC(=O)c1cc(OC)c(OC)cc1-n1c(C)ccc1C , can you help?
A) 1.01 (inactive)

Q) Looking for the measured normalized growth of N[C@@H](Cc1ccc(O)c(O)c1)C(=O)O , can you help?
A) 0.955 (inactive)

Q) Looking for the measured normalized growth of NC[C@H](O)c1ccc(O)c(O)c1 , can you help?
A) 1.01 (inactive)

Q) Looking for the measured normalized growth of OC(CNCCc1cccs1)COc1ccccc1 (stereo not drawn) , can you help?
A) 0.967 (inactive)

Q) Looking for the measured normalized growth of NCC(O)c1ccc(O)cc1 (stereo not drawn) , can you help?
A) 1 (inactive)

Q) Looking for the measured normalized growth of CN[C@H](CC(=O)O)C(=O)O , can you help?
A) 0.995 (inactive)

Q) Looking for the measured normalized growth of CN1CCN(C=Nc2ncc(C(F)(F)F)cc2Cl)CC1 , can you help?
A) 0.991 (inactive)
